The reported measurements were obtained from ChEMBL document CHEMBL2093137.

Test: WHO-TDR: Cytotoxicity
Assay type: toxicity, cell-based
Settings: human, MRC5 cells
Below, each of the compounds is paired with its reported IC50 value.

Entry under review: `CCOc1ccc2nc(N(Cc3cccnc3)C(=O)c3ccc(Cl)s3)sc2c1` . Reported IC50?
> 12.9 µg/mL

Return reported IC50; argument: `COc1ccc(OC)c(-c2csc(NC(=O)Cc3ccc(SC)cc3)n2)c1`
> 12 µg/mL

Which IC50 reading was recorded for the compound `COc1ccc(-c2ccc(N3CCN(C(=O)c4c(F)cccc4F)CC3)nn2)cc1OC` ?
> 13.2 µg/mL

Reported IC50 for `CCOc1ccc(-c2ccc(OCCNS(=O)(=O)c3cc(C)c(C)cc3C)nn2)cc1` : what is it?
> 13.2 µg/mL

Value lookup for IC50; key = `O=C1C=CC(=O)N1c1ccccc1F`
1.81 µg/mL
